These data points were gathered from ChEMBL document CHEMBL4513216.

Exercise: state measured cytotoxicity at 10 µM for each of the compounds provided.
Test: Toxicity liver stage against HepG2, at 10uM
Assay type: cell-based
Set-up: test concentration 10 uM, cell line HepG2-A16-CD81EGFP
Conditions: human, HepG2-A16-CD81EGFP cells; read-out: INHIBITION
Give bare numbers, in %.

Asked: Respond only with cytotoxicity at 10 µM recorded for C=C(C)COc1cccc(CNC(CC)c2ccnn2C)c1 (stereo unspecified)
Given back: -4.21

Asked: Give cytotoxicity at 10 µM for the following compound: CNc1cncc(C2CCCN2S(=O)(=O)c2ccccc2F)n1 (stereo unspecified)
Given back: -15.1

Asked: // Input: Cc1cc(-n2c(C)cn(CN(C)C3CCS(=O)(=O)C3)c2=O)no1 (stereo unspecified) . Output its cytotoxicity at 10 µM only.
Given back: -0.872

Asked: Item CO[C@H]1CCN(Cc2cnn(C)c2)[C@@H]2CN(Cc3ccncc3)C[C@H]12 : provide cytotoxicity at 10 µM
Given back: 2.29

Asked: Quick one: give measured cytotoxicity at 10 µM for O=C(C1CCOCC1)N1CC[C@@H](O)[C@@H]1Cc1ccccc1
Given back: 0.375

Asked: State its cytotoxicity at 10 µM: O=C(CC1CCCCC1)N1CCN(C(=O)NCc2ccccn2)CC1
Given back: -4.02

Each compound below has a recorded value; state its cytotoxicity at 10 µM.
1. COc1ncccc1C(=O)N1CC[C@H]2C[C@@H](C)O[C@@H]2C1
2. Cc1occc1CNC(=O)C1(C)CCCN(C(=O)c2ccccc2)C1 (stereo unspecified)
3. O=C1CC(c2cccc(O)c2)c2sc(C(=O)O)c(-c3ccccc3)c2N1 (stereo unspecified)
4. CNc1cc(-c2cccc(CN)c2)c2cc[nH]c2n1
5. CCCc1ncc(CN(C)C2CCCN(CCc3ccccc3)C2)cn1 (stereo unspecified)

Given back:
1: -7.63; 2: -7.01; 3: 6.33; 4: -3.23; 5: 0.301

###

Experiment: Toxicity liver stage against HepG2, at 10uM
Assay type: cell-based
Parameters: test concentration 10 uM, cell line HepG2-A16-CD81EGFP
Conditions: human, HepG2-A16-CD81EGFP cells; read-out: INHIBITION
Measure name: cytotoxicity at 10 µM (%)
One number for each entry, in %.

Asked: Answer with reported cytotoxicity at 10 µM of Cc1nc2c(c(NC3CCN(Cc4ccccc4)CC3)n1)CCNCC2
Given back: -6.74

Batch of 5 compounds: report cytotoxicity at 10 µM for each.
1. Cc1ncc(C)c(N2CCC(Cc3ccc(Cl)cc3)(C(=O)O)CC2)n1
2. F[C@@H]1CN(CC2CC2)C[C@@H]1OCc1nc2ncccc2[nH]1
3. Cc1nc(CCNC(=O)NC2CCCc3c2cnn3CCO)cs1 (stereo unspecified)
4. O=C(c1cnc(Nc2ccccc2)nc1)N1CCC2(CCNCC2)CC1
5. O=C(c1ccc(Cl)s1)N1CCC2(COc3ncccc3S(=O)(=O)N2)C1 (stereo unspecified)

Given back:
1: -6.28; 2: 5.52; 3: 6.68; 4: -5.96; 5: 8.77

###

Assay: Toxicity liver stage against HepG2, at 10uM
Assay type: cell-based
Set-up: test concentration 10 uM, cell line HepG2-A16-CD81EGFP
Settings: human, HepG2-A16-CD81EGFP cells; read-out: INHIBITION
Measure name: cytotoxicity at 10 µM (%)
Answers are plain numbers, in %.

Previously resolved entries follow.
Asked: Quote cytotoxicity at 10 µM reported for CCN1CCCc2cc(CN3CCc4c(nc(C)[nH]c4=O)C3)ccc21 please.
Given back: -1.02

Asked: Give cytotoxicity at 10 µM for O=C1CO[C@H]2CN(C3CCOCC3)C[C@H]2N1Cc1ccccn1
Given back: 0.566

Asked: Dear colleague, please send me the reported cytotoxicity at 10 µM for CC(C)c1cc(NCC2(CO)CCC2)ncn1 when you can.
Given back: 4.66

List reported cytotoxicity at 10 µM for each of these compounds:
1. COCc1cc(NCc2cc(F)ccc2F)n2nccc2n1
2. CC(=O)N[C@@H]1Cc2ccccc2[C@H]1Nc1nnc(C2CC2)o1
3. CC(C)NC(=O)N1CCc2onc(C(=O)Nc3cccnc3)c2C1

Given back:
[-2.32, -47.1, 4.32]

###

Experiment: Toxicity liver stage against HepG2, at 10uM
Type: cell-based
Parameters: test concentration 10 uM, cell line HepG2-A16-CD81EGFP
Details: human, HepG2-A16-CD81EGFP cells; read-out: INHIBITION
Measure name: cytotoxicity at 10 µM (%)
Give bare numbers, in %.

Worked examples follow.
Asked: // Input: Cn1cc(CN2CCC[C@]3(C[C@H](Oc4ncccc4F)CO3)C2)cn1 . Output its cytotoxicity at 10 µM only.
Given back: 9.92

Asked: Respond only with cytotoxicity at 10 µM recorded for O=S(=O)(Cc1ccc(F)cc1F)NCCOc1cccnc1
Given back: -45.9

Asked: Fill in cytotoxicity at 10 µM for record CN(Cc1nc(CC2CC2)no1)CC1Cc2ccccc2O1 (configuration not stated)
Given back: -2.53

Asked: For O=C(CO[C@@H]1CC[C@H]2[C@H]1OCCN2c1ncccn1)N1CCCC1 , write its cytotoxicity at 10 µM.
Given back: -7.58

Asked: For the compound COCCNC(=O)C(C)n1cc(Br)cn1 (configuration not stated) , give its reported cytotoxicity at 10 µM.
Given back: -15

Asked: Respond only with cytotoxicity at 10 µM recorded for Cc1cc(C[C@@H]2CCC[C@H]2NCc2c[nH]nc2-c2ccccc2)on1
Given back: -14

I need cytotoxicity at 10 µM for every entry listed below, if you could help.
1. Cc1csc(CNC(=O)NCCc2ccc3c(c2)OCCO3)n1
2. Cc1c(C(=O)N2CCC3(CCCN(CC4CC4)C3=O)C2)ccn1C (configuration not stated)
3. Cc1c(C(=O)NCC(F)(F)F)nnn1-c1ccccc1Cl
4. Cc1cccc(COCC2c3nnn(C)c3CCN2Cc2ccoc2)n1 (configuration not stated)
5. O=C(C1CCCC1)N1CC2(CCN(C3COC3)C2)Cc2ccccc21 (configuration not stated)
6. CCCc1nc(NCC(=O)N2CCOCC2)c2c(n1)c(C)nn2CC

Given back:
4.74
-3.92
2.37
-142
10.1
12.2

Hi team, please reply with cytotoxicity at 10 µM for each item in this list.
1. Cc1cc(-c2nccs2)nc(C2CCN(Cc3ccc(F)cc3)CC2)n1
2. CC(C)c1nnc(NC(=O)N(C)Cc2ccc(C(N)=O)cc2)s1
3. COc1ccc(Br)cc1CCC(=O)N1CCCC(O)C1 (configuration not stated)

Given back:
[6.54, 12, 5.66]

Could you tell me cytotoxicity at 10 µM for each of these compounds? They are listed below.
1. Cn1cnnc1S(=O)(=O)Cc1cc(Cl)c2c(c1)OCO2
2. Cn1cc(-c2cnc3n2CCC32CCN(S(=O)(=O)C3CC3)CC2)cn1
3. Cc1nn(C)c(C)c1CN1CCCC(c2ccc(C(=O)O)cc2)C1 (configuration not stated)

Given back:
1: -36.6; 2: -139; 3: -8.82

###

Experiment: Toxicity liver stage against HepG2, at 10uM
Assay type: cell-based
Set-up: test concentration 10 uM, cell line HepG2-A16-CD81EGFP
Details: human, HepG2-A16-CD81EGFP cells; read-out: INHIBITION
Record form. Attribute: cytotoxicity at 10 µM. Fill in for each entry.
Please answer using the number first and the unit second.

Before answering, review these 6 worked examples.
Asked: Return reported cytotoxicity at 10 µM. Input molecule: CN1CCN(Cc2cn3c(n2)CN(C(=O)N2CCOCC2)CC3)CC1
Given back: -18.3%

Asked: Specify reported cytotoxicity at 10 µM for the molecule shown: CCCn1nnnc1CN1Cc2ccccc2CC1c1nnc(C)o1 (centres undefined)
Given back: 9.52%

Asked: Respond only with cytotoxicity at 10 µM recorded for COCCCNC(=O)CN(C)C(C)c1nc(C(C)C)no1 (centres undefined)
Given back: 8.24%

Asked: Identify the reported cytotoxicity at 10 µM for the following entry. O=c1[nH][nH]c2cn(-c3ccccc3)c(=O)n12
Given back: 4.6%

Asked: Give the value of cytotoxicity at 10 µM reported for the following: Cc1nc(C2CCCN2CC(=O)N(Cc2ccsc2)C2CC2)no1 (centres undefined)
Given back: -12.1%

Asked: Give reported cytotoxicity at 10 µM value for Cn1c(NCC(O)c2ccccc2F)c(C#N)c(=O)n(C)c1=O (centres undefined)
Given back: -12.5%

Hi team, please reply with cytotoxicity at 10 µM for each item in this list.
1. O=C([C@@H]1C[C@@H]2CCN(C3CCOCC3)C[C@H]2O1)N1CCCC1
2. N#Cc1ccccc1OCCN1CCC(N2CCNC2=O)CC1
3. O=C(CCn1cncn1)NC1CCc2nccn2C1 (centres undefined)
4. c1csc(N2CCCN(Cc3nc(C4CC4)no3)CC2)n1
5. CNc1nccnc1C1CCN(C(C)C)CC1
6. Cc1cc(C(=O)N(C)S(=O)(=O)C(C)C)ccc1F
7. Cc1ccc(CNCc2nccn2C)c(OCC2CC2)c1

Given back:
1. 4.5%
2. -8.58%
3. -4.39%
4. -9.68%
5. -25.2%
6. -54.3%
7. -4.52%

I need cytotoxicity at 10 µM for every entry listed below, if you could help.
1. Cc1cc(C)n(CC2CCCN2CCCc2nc3ccccc3o2)n1 (centres undefined)
2. CCOc1ccccc1-c1noc(CN2CCN(CCOC)CC2)n1
3. O=C1CCc2cc(S(=O)(=O)NC(=O)c3ccc4c(c3)OCO4)ccc2N1
4. COc1ccc(C(=O)N2C[C@@H](C(=O)O)[C@H](c3ccccc3)C2)c(C)c1
5. O=C(c1cnc(-c2cccs2)s1)N1CCCC(n2cccn2)C1 (centres undefined)
6. Cc1ccc(C(=O)N(C)Cc2nccn2CC(F)(F)F)cn1
7. Cn1ncc2c1NC(=O)CC2c1ccccc1Br (centres undefined)
8. CN1[C@@H](C(=O)NCC2CC2)C[C@@H]2CN(c3ncccn3)C[C@@H]21

Given back:
-10.9%
-4.9%
-17.8%
5.23%
-10.8%
2.52%
49%
9.85%
